# Lookup of reported Fh keyed by entry
# method-description: Stability in dog hepatocytes assessed as maximum bioavailability
# Type: ADME, Canis lupus familiaris, Hepatocyte
# test-conditions: read-out: Fmax
Answer with a number only, understood to be in %.

Examples with their reported Fh follow.
[
  {
    "compound": "Cc1c(NC(=O)c2cc(C(N)=O)nc3cc(F)ccc23)c(C(F)(F)F)nn1Cc1ccc(C#N)cc1 [BAY-876]",
    "Fh / %": 90
  },
  {
    "compound": "Cc1c(NC(=O)c2cc(C(N)=O)nc3cc(F)ccc23)c(C(F)(F)F)nn1Cc1ccc(C#N)cn1",
    "Fh / %": 100
  }
]

Now for a further compound.
Consider the compound "Cc1c(NC(=O)c2cc(C(N)=O)nc3ccccc23)c(C(F)(F)F)nn1Cc1ccc(C#N)cc1" and give its measured Fh. 95

###

# assay-system: Solute carrier family 2, facilitated glucose transporter member 1 (Homo sapiens, UniProt P11166)
# Sequence (P11166 whole entry): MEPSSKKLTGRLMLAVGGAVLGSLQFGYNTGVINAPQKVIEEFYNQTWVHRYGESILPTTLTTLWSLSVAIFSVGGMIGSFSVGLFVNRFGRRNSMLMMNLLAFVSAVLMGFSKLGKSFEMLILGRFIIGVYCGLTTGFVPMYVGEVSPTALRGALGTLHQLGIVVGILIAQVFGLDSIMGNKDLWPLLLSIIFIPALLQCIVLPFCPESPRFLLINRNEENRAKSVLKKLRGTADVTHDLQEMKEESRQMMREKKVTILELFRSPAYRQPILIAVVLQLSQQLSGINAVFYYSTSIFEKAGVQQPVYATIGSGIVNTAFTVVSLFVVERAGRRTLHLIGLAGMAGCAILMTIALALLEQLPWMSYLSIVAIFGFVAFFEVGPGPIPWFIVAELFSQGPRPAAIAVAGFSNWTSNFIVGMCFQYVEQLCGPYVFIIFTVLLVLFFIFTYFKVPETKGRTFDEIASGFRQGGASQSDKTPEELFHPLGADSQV
# method-description: Inhibition of human GLUT1 expressed in human DLD-1 cells assessed as reduction in glucose uptake by measuring decrease in ATP production incubated for 15 mins in presence of oxidative phosphorylation inhibitor rotenone by CellTiter-Glo Luminescent Cell Viability Assay
# Format: cell-based
Assign labels as follows, please: 1.0 for IC50 below 10 nM; 0.0 for IC50 equal to or exceeding 10 nM.

[
  {
    "smiles-structure": "Cc1c(NC(=O)c2cc(C(=O)N3CC(O)C3)nc3cc(F)ccc23)c(C(F)(F)F)nn1Cc1ccc(C#N)cc1",
    "class-assignment": 0.0
  },
  {
    "smiles-structure": "Cc1c(NC(=O)c2cc(C(=O)NCCN3CCOCC3)nc3cc(F)ccc23)c(C(F)(F)F)nn1Cc1ccc(C#N)cc1",
    "class-assignment": 0.0
  },
  {
    "smiles-structure": "Cc1nn(Cc2ccc(F)cc2)c(C)c1N",
    "class-assignment": 0.0
  },
  {
    "smiles-structure": "Cc1nn(-c2ccc(F)cc2)c(C)c1NC(=O)c1cc(C(F)(F)F)nc2ccc(Br)cc12",
    "class-assignment": 0.0
  },
  {
    "smiles-structure": "Cc1nc(C)c(-c2cc(C(=O)Nc3c(C(F)(F)F)nn(Cc4ccc(C#N)cc4)c3C)c3ccccc3n2)s1",
    "class-assignment": 0.0
  },
  {
    "smiles-structure": "Cc1nn(Cc2ccc(C#N)cc2F)c(C)c1NC(=O)c1cc(C(F)(F)F)nc2ccc(Br)cc12",
    "class-assignment": 1.0
  },
  {
    "smiles-structure": "Cc1c(NC(=O)c2cc(C(N)=O)nc3cc(F)ccc23)c(C(F)(F)F)nn1Cc1ccc(C#N)cn1",
    "class-assignment": 1.0
  },
  {
    "smiles-structure": "Cc1ccccc1Cn1nc(C(F)(F)F)c(NC(=O)c2cc(C(N)=O)nc3cc(F)ccc23)c1C",
    "class-assignment": 1.0
  }
]

Now for another entry.
Hi there! Is IC50 for "Cc1nn(Cc2ccc(C#N)cn2)c(C)c1NC(=O)c1cc(C(F)(F)F)nc2ccc(Br)cc12" below 10 nM, do you know? 1.0
